tested on: isolated portal vein preparation / paced isolated papillary heart muscle preparation; assay: Specificity towards smooth muscle relaxation: isolated portal vein versus paced papillary heart muscle in an organ bath; design: species or system Wistar rats; details: separation value: averaged difference of -log ED50 portal vein (vasodilatation) and -log ED50 papillary muscle (myocardial depression), transformed into numeric format
measurement kind: Ratio heart vasc.
# output: bare number, no unit

The recorded Ratio heart vasc. for entry CCOC(=O)C1=C(C)NC(C)=C(C(=O)OCCSCCN(C)C)C1c1cccc(Cl)c1Cl (stereo not shown) equals 16

The recorded Ratio heart vasc. for entry CCN(CC)CCSCCOC(=O)C1=C(C)NC(C)=C(C(=O)OC)C1c1cccc(Cl)c1Cl (stereo not shown) equals 4

The recorded Ratio heart vasc. for entry COC(=O)C1=C(C)NC(C)=C(C(=O)OCCSCCN(C)C)C1c1cccc(C#N)c1 (stereo not shown) equals 18

The recorded Ratio heart vasc. for entry COC(=O)C1=C(C)NC(C)=C(C(=O)OCCSCCN(C)C)C1c1cccc(Cl)c1Cl (stereo not shown) equals 3

The recorded Ratio heart vasc. for entry COC(=O)C1=C(C)NC(C)=C(C(=O)OCCSCCCN(C)C)C1c1cccc(Cl)c1Cl (stereo not shown) equals 3

The recorded Ratio heart vasc. for entry COCCOC(=O)C1=C(C)NC(C)=C(C(=O)OCCSCCN(Cc2ccccc2)C(C)C)C1c1cccc(Cl)c1Cl (stereo not shown) equals 50

The recorded Ratio heart vasc. for entry COC(=O)C1=C(C)NC(C)=C(C(=O)OCCSCCN(C)C)C1c1ccccc1[N+](=O)[O-] (stereo not shown) equals 5
